# TARGET ENTITY: Adenosine receptor A1 (Homo sapiens) (UniProt P30542)
# Sequence (whole entry): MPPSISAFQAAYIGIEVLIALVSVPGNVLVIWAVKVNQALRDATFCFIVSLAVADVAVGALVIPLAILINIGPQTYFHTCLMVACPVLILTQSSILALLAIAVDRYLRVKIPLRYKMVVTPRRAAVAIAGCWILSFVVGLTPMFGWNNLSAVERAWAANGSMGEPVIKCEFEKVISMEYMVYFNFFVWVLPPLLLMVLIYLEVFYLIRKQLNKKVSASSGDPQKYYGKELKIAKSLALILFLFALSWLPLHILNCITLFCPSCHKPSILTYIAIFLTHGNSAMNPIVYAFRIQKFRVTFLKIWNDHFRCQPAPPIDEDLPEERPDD
# ASSAY: Displacement of [3H]DPCPX from human adenosine A1 receptor expressed in CHO cell membranes assessed as dissociation rate constant by competition association assay
VALUE KIND: K (min⁻¹)

Known K results, listed for orientation:
[[record]]
molecule = "COc1ccc(-c2c(C#N)c(N)nc(SCc3nc(-c4ccc(Cl)cc4)sc3Cl)c2C#N)cc1"
target_entity = "Adenosine receptor A1 (Homo sapiens) (UniProt P30542)"
measured = 0.028

[[record]]
molecule = "N#Cc1c(N)nc(SCc2csc(-c3ccc(Cl)cc3)n2)c(C#N)c1-c1ccc(OCCO)cc1 [CAPADENOSON]"
target_entity = "Adenosine receptor A1 (Homo sapiens) (UniProt P30542)"
measured = 0.036


(A) COc1ccc(-c2c(C#N)c(N)nc(SCc3csc(-c4ccc(I)cc4)n3)c2C#N)cc1
(B) COc1ccc(-c2c(C#N)c(N)nc(SCc3csc(-c4ccc(Cl)cn4)n3)c2C#N)cc1
(C) N#Cc1c(N)nc(SCc2csc(-c3ccc(Cl)cc3)n2)c(C#N)c1-c1ccc2c(c1)OCO2
q: Give the ascending ranking of the items by reported K. Ranked list of labels, please, in the requested order.
a: A, C, B
(A: 0.011 min⁻¹, C: 0.016 min⁻¹, B: 0.035 min⁻¹)

----------
# TARGET ENTITY: Adenosine receptor A1 (Homo sapiens)
# Sequence (whole entry): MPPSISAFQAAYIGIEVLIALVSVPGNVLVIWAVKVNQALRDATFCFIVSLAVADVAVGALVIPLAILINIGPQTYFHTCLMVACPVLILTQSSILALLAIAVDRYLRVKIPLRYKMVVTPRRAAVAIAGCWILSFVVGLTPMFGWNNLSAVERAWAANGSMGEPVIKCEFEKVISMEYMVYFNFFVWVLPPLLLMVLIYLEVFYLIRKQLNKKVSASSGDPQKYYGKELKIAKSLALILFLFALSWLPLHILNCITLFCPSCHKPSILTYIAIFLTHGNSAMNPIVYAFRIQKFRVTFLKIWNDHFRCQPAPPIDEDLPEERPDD
# ASSAY: Displacement of [3H]DPCPX from human adenosine A1 receptor expressed in CHO cell membranes assessed as association rate constant by competition association assay
VALUE KIND: K (×10⁶ /M/min)

[[record]]
entry_smiles = "COc1ccc(-c2c(C#N)c(N)nc(SCc3csc(-c4ccc(I)cc4)n3)c2C#N)cc1"
measured = 1.6

[[record]]
entry_smiles = "N#Cc1c(N)nc(SCc2csc(-c3ccc(Cl)cc3)n2)c(C#N)c1-c1ccc2c(c1)OCO2"
measured = 2.4

[[record]]
entry_smiles = "N#Cc1c(N)nc(SCc2csc(-c3ccc(Cl)cc3)n2)c(C#N)c1-c1ccc(O)cc1"
measured = 4.3

[[record]]
entry_smiles = "COc1ccc(-c2c(C#N)c(N)nc(SCc3csc(-c4ccc(Br)cc4)n3)c2C#N)cc1"
measured = 2.4

[[record]]
entry_smiles = "COc1ccc(-c2c(C#N)c(N)nc(SCc3csc(-c4ccc(F)cc4)n3)c2C#N)cc1"
measured = 4.6


(a) COc1ccc(-c2c(C#N)c(N)nc(SCc3csc(-c4ccc(Cl)cn4)n3)c2C#N)cc1
(b) COc1ccc(-c2c(C#N)c(N)nc(SCc3csc(-c4ccc(Br)cn4)n3)c2C#N)cc1
q: Could you determine which record has the numerically smaller K? Candidates: a and b Answer by quoting the chosen item's label.
a: b
(b: 1.4 ×10⁶ /M/min, a: 3.4 ×10⁶ /M/min)

----------
# TARGET ENTITY: Adenosine receptor A3 (Homo sapiens) (UniProt P0DMS8)
# Sequence (P0DMS8 whole entry): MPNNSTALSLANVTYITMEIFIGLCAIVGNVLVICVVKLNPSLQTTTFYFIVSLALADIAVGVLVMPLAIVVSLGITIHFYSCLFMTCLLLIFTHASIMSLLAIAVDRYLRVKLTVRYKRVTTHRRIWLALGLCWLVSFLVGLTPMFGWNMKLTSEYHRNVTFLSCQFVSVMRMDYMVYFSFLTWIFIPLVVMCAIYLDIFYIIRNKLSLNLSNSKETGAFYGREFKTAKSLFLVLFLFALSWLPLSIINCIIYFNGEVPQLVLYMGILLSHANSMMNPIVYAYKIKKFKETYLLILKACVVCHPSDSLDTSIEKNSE
# ASSAY: Displacement of [3H]PSB11 from human adenosine A3 receptor expressed in CHO cell membranes at 1 uM by competition association assay
VALUE KIND: inhibition (%)

(P) COc1ccc(-c2c(C#N)c(N)nc(SCc3csc(-c4ccc(Cl)cc4)n3)c2C#N)cc1
(Q) COc1ccc(-c2c(C#N)c(N)nc(SCc3csc(N4CCOCC4)n3)c2C#N)cc1
q: inhibition comparison. Which is larger, P or Q ? Answer by quoting the chosen item's label.
a: Q
(Q: 51%, P: 19%)

----------
Quick reference: inhibition of the listed items.
# TARGET ENTITY: Adenosine receptor A1 (Homo sapiens) (UniProt P30542)
# ASSAY: Displacement of [3H]DPCPX from human adenosine A1 receptor expressed in CHO cell membranes at 1 uM by competition association assay

[[record]]
entry_smiles = "COc1ccc(-c2nc(CSc3nc(N)c(C#N)c(-c4ccc(O)cc4)c3C#N)cs2)cc1"
value_kind = "inhibition"
measured = "> 80%"

[[record]]
entry_smiles = "CCNCCN1CCN(C(=O)CCc2cccc(CSc3nc(N)c(C#N)c(-c4ccc(NC(C)=O)cc4)n3)n2)CC1"
value_kind = "inhibition"
measured = "< 80%"

[[record]]
entry_smiles = "N#Cc1c(N)nc(SCc2csc(C3CCCCC3)n2)nc1-c1ccc2c(c1)OCO2"
value_kind = "inhibition"
measured = "> 80%"


q: Entry "N#Cc1c(N)nc(SCc2csc(-c3ccc([N+](=O)[O-])cc3)n2)nc1-c1ccc2c(c1)OCO2" : reported inhibition = ?
a: > 80%

q: Moving on to "N#Cc1c(NCCCCc2ccccc2)nc(SCc2csc(-c3ccc(Cl)cc3)n2)nc1-c1ccc2c(c1)OCO2"
a: < 80%

----------
# TARGET ENTITY: Adenosine receptor A1 (Homo sapiens)
# Sequence (whole entry): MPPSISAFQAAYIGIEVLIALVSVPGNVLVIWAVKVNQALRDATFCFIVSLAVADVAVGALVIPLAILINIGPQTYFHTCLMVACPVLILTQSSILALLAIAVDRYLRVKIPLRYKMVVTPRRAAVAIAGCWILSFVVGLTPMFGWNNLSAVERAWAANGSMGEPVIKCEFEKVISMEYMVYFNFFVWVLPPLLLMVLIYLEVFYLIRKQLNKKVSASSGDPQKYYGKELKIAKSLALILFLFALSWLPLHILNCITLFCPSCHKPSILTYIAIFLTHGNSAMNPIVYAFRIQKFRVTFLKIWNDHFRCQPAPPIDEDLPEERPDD
# ASSAY: Displacement of [3H]DPCPX from human adenosine A1 receptor expressed in CHO cell membranes assessed as residence time by competition association assay
VALUE KIND: TIME (h)

(a) COc1ccc(-c2c(C#N)c(N)nc(SCc3csc(-c4cccc(Cl)c4)n3)c2C#N)cc1
(b) N#Cc1c(N)nc(SCc2csc(-c3ccc(Cl)cc3)n2)c(C#N)c1-c1ccc2c(c1)OCO2
(c) COc1ccc(-c2c(C#N)c(N)nc(SCc3csc(-c4ccc(Cl)cc4)n3)c2C#N)cc1
(d) N#Cc1c(N)nc(SCc2csc(-c3ccc(Cl)cc3)n2)c(C#N)c1-c1ccc(OCCO)cc1
q: List the compounds shown above again, sorted by falling TIME values. Ranked list of labels, please, in the requested order.
a: c, b, a, d

(P) COc1ccc(-c2c(C#N)c(N)nc(SCc3csc(-c4ccc(Cl)cn4)n3)c2C#N)cc1
(Q) COc1ccc(-c2c(C#N)c(N)nc(SCc3csc(-c4ccc(Br)cc4)n3)c2C#N)cc1
(R) COc1ccc(-c2c(C#N)c(N)nc(SCc3csc(-c4ccc(I)cc4)n3)c2C#N)cc1
q: Given 3 compounds, produce a descending ranking by TIME. Ranked list of labels, please, in the requested order.
a: R, Q, P
(R: 1.51 h, Q: 0.833 h, P: 0.477 h)

(1) COc1ccc(-c2c(C#N)c(N)nc(SCc3csc(-c4ccc(F)cc4)n3)c2C#N)cc1
(2) COc1ccc(-c2c(C#N)c(N)nc(SCc3csc(-c4ccc(Cl)c(Cl)c4)n3)c2C#N)cc1
q: Could you determine which record has the numerically smaller TIME? Candidates: 1 and 2 Answer by quoting the chosen item's label.
a: 1

----------
# TARGET ENTITY: Adenosine receptor A1 (Homo sapiens) (UniProt P30542)
# ASSAY: Displacement of [3H]DPCPX from human adenosine A1 receptor expressed in CHO cell membranes assessed as dissociation rate constant by competition association assay
VALUE KIND: K (min⁻¹)

Known K results, listed for orientation:
[[record]]
entry_smiles = "COc1ccc(-c2c(C#N)c(N)nc(SCc3csc(-c4cccc(Cl)c4)n3)c2C#N)cc1"
target_entity = "Adenosine receptor A1 (Homo sapiens) (UniProt P30542)"
value_kind = "K"
unit_spec = "min⁻¹"
measured = 0.025

[[record]]
entry_smiles = "COc1ccc(-c2c(C#N)c(N)nc(SCc3csc(-c4ccc(F)cc4)n3)c2C#N)cc1"
target_entity = "Adenosine receptor A1 (Homo sapiens) (UniProt P30542)"
value_kind = "K"
unit_spec = "min⁻¹"
measured = 0.033

[[record]]
entry_smiles = "COc1ccc(-c2c(C#N)c(N)nc(SCc3csc(-c4ccc(Br)cn4)n3)c2C#N)cc1"
target_entity = "Adenosine receptor A1 (Homo sapiens) (UniProt P30542)"
value_kind = "K"
unit_spec = "min⁻¹"
measured = 0.03


(1) COc1ccc(-c2c(C#N)c(N)nc(SCc3csc(-c4ccc(Cl)c(Cl)c4)n3)c2C#N)cc1
(2) N#Cc1c(N)nc(SCc2csc(-c3ccc(Cl)cc3)n2)c(C#N)c1-c1ccc(O)cc1
q: K comparison. Which is larger, 1 or 2 ? Answer by quoting the chosen item's label.
a: 2

(1) COc1ccc(-c2c(C#N)c(N)nc(SCc3csc(-c4ccc(Br)cc4)n3)c2C#N)cc1
(2) COc1ccc(-c2c(C#N)c(N)nc(SCc3csc(-c4ccc(Cl)cc4)n3)c2C#N)cc1
q: Could you determine which record has the numerically smaller K? Candidates: 1 and 2 Answer by quoting the chosen item's label.
a: 2
